Give residual activity for every item shown.
STUDY TARGET: UniProt:Q16644
Sequence (Q16644 whole entry, looked up): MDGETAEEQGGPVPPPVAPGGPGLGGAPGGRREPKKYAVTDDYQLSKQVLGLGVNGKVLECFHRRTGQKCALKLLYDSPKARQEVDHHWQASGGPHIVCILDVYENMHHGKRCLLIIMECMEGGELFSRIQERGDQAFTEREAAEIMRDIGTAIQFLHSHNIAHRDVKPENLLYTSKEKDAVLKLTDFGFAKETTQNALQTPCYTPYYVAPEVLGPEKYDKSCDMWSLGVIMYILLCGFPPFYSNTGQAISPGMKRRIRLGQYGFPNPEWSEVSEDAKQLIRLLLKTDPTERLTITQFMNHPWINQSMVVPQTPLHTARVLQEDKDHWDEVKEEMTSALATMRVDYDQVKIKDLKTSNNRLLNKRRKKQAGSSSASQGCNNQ
EXPERIMENTAL DETAILS: radiometric filter-binding kinase assay, Kinase HotSpot
SETUP CONDITIONS: compound 0.5 µM; ATP 10 µM
Numbers only, in %.

Dear colleague, could you please provide residual activity for the compounds listed below?
1. CN(C)CCCn1cc(C2=C(c3c[nH]c4ccccc34)C(=O)NC2=O)c2ccccc21
2. Cn1c2ccccc2c2c3c(c4c5ccccc5n(CCC#N)c4c21)CNC3=O
3. COc1ccc2c(c1)/C(=C/c1cnc[nH]1)C(O)=N2
4. O=C1Nc2ccc(Br)cc2/C1=C\c1cc2c([nH]1)CCCC2
5. COc1ccc(Cl)cc1NC(=O)Nc1cc(C)nc2ccccc12

1: 95.3; 2: 83.7; 3: 102; 4: 95.1; 5: 101

Dear colleague, could you please provide residual activity for the compounds listed below?
1. Cc1nc(-c2ccccc2)c(-c2ccncc2)o1
2. Cc1cccc(-c2nc(C(C)(C)C)[nH]c2-c2ccc3c(c2)OCO3)n1
3. CN(C)c1ccc(/C=C2\C(=O)Nc3ccccc32)cc1
4. N#C/C(=C\c1ccc(O)c(O)c1)C(=O)NCc1ccccc1
5. COc1ccc(C(=O)Nc2sc3c(c2C(N)=O)CCCC3)cc1OC
6. Fc1ccc(-c2nc3n(c2-c2ccncc2)CCS3)cc1
7. NC(=O)c1cccc(-c2cc(Nc3ccc(OC(F)(F)F)cc3)ncn2)c1
8. CN(C)S(=O)(=O)c1ccc2c(c1)/C(=C/c1cc3c([nH]1)CCCC3)C(=O)N2

1. 94.7
2. 94.1
3. 100
4. 102
5. 97.2
6. 95.5
7. 98
8. 100

Dear colleague, could you please provide residual activity for the compounds listed below?
1. O=C1C(Cl)=C(N2C(=O)CCC2=O)C(=O)c2ccccc21
2. COc1cc2ncnc(Nc3ccc(Oc4ccccc4)cc3)c2cc1OC
3. Cc1cncc2cccc(S(=O)(=O)N3CCCN(C(=O)CN)C[C@H]3C)c12

[103, 98.9, 98.8]

Dear colleague, could you please provide residual activity for the compounds listed below?
1. Ic1cccc(CSc2nnc(-c3ccncc3)o2)c1
2. CS(=O)(=O)CCNCc1ccc(-c2ccc3ncnc(Nc4ccc(OCc5cccc(F)c5)c(Cl)c4)c3c2)o1
3. N#Cc1c[nH]c2c[nH]/c(=N\Cc3cccnc3)cc2/c1=N\c1ccc(F)c(Cl)c1
4. C[C@@H]1CCN(C(=O)CC#N)C[C@@H]1N(C)c1ncnc2[nH]ccc12
5. O=C1NC(=O)c2c1c1c3ccccc3[nH]c1n1cncc21

1. 109
2. 103
3. 94
4. 100
5. 88.7

Dear colleague, could you please provide residual activity for the compounds listed below?
1. c1ccc2c(-c3ccncc3)c[nH]c2c1
2. CCCCc1c(-c2ccc(OC)cc2)[nH]c2nccnc12

97.8
98.6
